resultType: logP
Answers are plain numbers.

Field logP (entry C#CCC(O)c1cccnc1 (stereo unspecified) ) reads 1.21

---

Could you please report measured logP for the items listed next?
# method: method code SF, from DOI: 10.1002/ps.2780140605
Give bare numbers.

Study these solved cases before continuing.
C#CCC(O)(CC#C)c1cccnc1 : 1.29
C#CCC(O)(c1cccnc1)c1ccc2ccccc2c1 (configuration not stated) : 2.14
C#CCC(O)(c1ccc(F)cc1)c1cccnc1 (configuration not stated) : 1.78

Please give logP for each item listed below.
1. C#CCC(O)(c1cccnc1)c1ccc(Cl)c(Cl)c1 (configuration not stated)
2. C#CCC(O)(c1cccnc1)C1CCCCC1 (configuration not stated)
3. C#CCC(O)(c1ccc(C(C)C)cc1)c1cccnc1 (configuration not stated)
4. C#CCC(O)(c1cccnc1)c1ccc(Cl)cc1Cl (configuration not stated)

OUT:
[2.42, 2.09, 2.16, 2.29]
